Numbers sourced from patent US20230012273A1.

- TARGET_SYSTEM: T1, Human SIRPαV1 (NP_542970.1), Extracellular Domain + His-Tag (human, UniProt P78324 31-373)
- T1 construct: also called huSIRPαV1; hSIRPαV1; not shown: His-Tag
- T1 sequence (P78324 other isoform, or with tags, fused parts or gaps): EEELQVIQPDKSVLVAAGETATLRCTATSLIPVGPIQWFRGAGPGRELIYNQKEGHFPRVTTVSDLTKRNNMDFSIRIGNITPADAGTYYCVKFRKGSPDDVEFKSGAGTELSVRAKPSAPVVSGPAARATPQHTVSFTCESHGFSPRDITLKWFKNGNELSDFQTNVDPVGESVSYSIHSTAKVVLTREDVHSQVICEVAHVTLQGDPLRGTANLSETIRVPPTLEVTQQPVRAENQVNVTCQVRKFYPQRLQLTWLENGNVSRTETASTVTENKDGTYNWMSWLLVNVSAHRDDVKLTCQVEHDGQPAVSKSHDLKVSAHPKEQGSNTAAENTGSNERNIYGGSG
- PROCEDURE_TEXT: SPR, antibody captured on Protein A/G, ECD-His analyte, 1:1 fit
- Method: The binding kinetics of anti-SIRPα antibodies to various SIRPα analytes are determined by surface plasmon resonance (SPR) using a Biacore 8K+(Cytiva). 1×HBS-EP+(Cytiva) is used as running buffer and for all the dilutions unless stated otherwise. […]
# reported koff; entries follow
Express the result in s⁻¹ but write the number alone.

{"columns": ["BINDER", "OBSERVED_RESULT"],
 "data": [
  ["Antibody E20 (antibody, human IgG1, kappa, L234A L235A, V domains shown) VH: QVQLQESGPGLVRPSETLSLTCTVSGGSIRNYYWSWIRQPPGKGLEWIGFIYYTGRTFYNPSLKSRVTISLDMSINQFSLKMTSVTAADTAVYYCARVRAYSGIGLDGTDVWGQGTTVTVSS VL: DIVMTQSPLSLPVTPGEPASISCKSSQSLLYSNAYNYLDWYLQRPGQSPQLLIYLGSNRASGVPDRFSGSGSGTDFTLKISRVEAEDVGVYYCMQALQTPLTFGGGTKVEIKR", 0.00164],
  ["Antibody E11 (antibody, human IgG1, kappa, L234A L235A, V domains shown) VH: QVQLQESGPGLVRPSETLSLTCTVSGGSIRNYYWSWIRQPPGKGLEWMGFIYDNGRTFYNPSLKSRVTISLDMSMNQFSLKMTSVTAADTAVYYCARVRAYSGIGLDGTDVWGQGTTVTVSS VL: DIVMTQSPLSLPVTPGEPASISCKSSQSLLYSNGYAYLDWYLQRPGQSPQLLIYLGSNRASGVPDRFSGSGSGTDFTLKISRVEAEDVGVYYCMQALQTPLTFGGGTKVEIKR", 0.000498],
  ["Antibody A15 (antibody, human IgG1, kappa, L234A L235A, V domains shown) VH: EVQLVESGGGLVQPGGSLRLSCAASGFTLSSYDMHWVRQAPGKGLEWVSAIGTAGDTYYTGSVKGRFTISRENAKNSLYLQMNSLRAEDTAVYYCVRGGVWDDAFDIWGQGTMVTVSS VL: DIQMTQSPSSLSASVGDRVTITCRASQDINNYLAWFQQKPGKAPKSLIYTASSLHSGVPSKFSGSGSGTDFTLTISSLQPEDFATYYCQQYVSYPYTFGQGTKLEIKR", 0.00371],
  ["Antibody A12 (antibody, human IgG1, kappa, L234A L235A, V domains shown) VH: EVQLVESGGGLVQPGGSLRLSCAASGFTLSSYDMHWVRQATGKGLEWVSAIGTAGDTYYTGSVKGRFTISRENAKNSLYLQMNSLRASDTAVYYCVRGGVWDDAFDIWGQGTMVTVSS VL: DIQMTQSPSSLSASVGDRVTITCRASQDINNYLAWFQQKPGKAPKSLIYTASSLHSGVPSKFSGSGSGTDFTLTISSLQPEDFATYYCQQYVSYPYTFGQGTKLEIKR", 0.00378]
]}

# input for lookup
**Query** Can you share its koff? I mean this binder: Antibody E14 (antibody, human IgG1, kappa, L234A L235A, V domains shown) VH: QVQLQESGPGLVRPSETLSLTCTVSGGSIRNYYWSWIRQPPGKGLEWIGFIYYNGRTFYNPSLKSRVTISLDKSKNQFSLKMTSVTAADTAVYYCARVRAYSGIGLDGTDVWGQGTTVTVSS VL: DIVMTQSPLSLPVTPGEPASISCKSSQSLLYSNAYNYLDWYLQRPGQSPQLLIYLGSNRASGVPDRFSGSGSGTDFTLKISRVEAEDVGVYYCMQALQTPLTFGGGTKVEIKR
**Result** 0.000743
